Target: T1, CD30-Fc (human)
T1 construct: also called extracellular domain of CD30 fused with human IgG Fc
T1 chain: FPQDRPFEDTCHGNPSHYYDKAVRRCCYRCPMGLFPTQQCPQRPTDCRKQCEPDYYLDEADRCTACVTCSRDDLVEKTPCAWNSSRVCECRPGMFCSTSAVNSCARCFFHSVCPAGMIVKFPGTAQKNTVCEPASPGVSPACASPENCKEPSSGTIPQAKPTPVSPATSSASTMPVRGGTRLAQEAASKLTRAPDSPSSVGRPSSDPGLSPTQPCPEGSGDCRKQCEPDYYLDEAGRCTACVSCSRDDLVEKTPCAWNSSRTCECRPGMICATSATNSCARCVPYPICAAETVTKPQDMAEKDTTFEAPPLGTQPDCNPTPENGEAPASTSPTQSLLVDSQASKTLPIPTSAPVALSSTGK
Assay: ELISA using CD30-Fc (equilibrium in solution)
Record form. Attribute: pKd. Fill in for each entry.
One number for each entry, as −log10 of the molar value.

Give me pKd for each of these binders, listed below.
1. T105 MAb (antibody, V domains shown) VH: QVTLKESGPGILQPSQTLSLTCSFSGFSLSTSGMGVSWIRQPSGKDLEWLAHIYWDDDKRYNPSLKSRLTISKDTSSNQVFLKITSVDTADTATYYCARRADGLYFYLDVWGAGTTVTVSS VL: DIVMTQSQKFMSTSVGDRVSVTCKASQNVNTNVAWYQQKPGQSPEALIYSASYRYSGVPDRFTGSGSGTDFTLTISNVQSEDLAEYFCQQYNSYPLTFGSGTKLEIKR
2. T6 MAb (antibody, V domains shown) VH: QVQLKESGPGLVTPSQSLSITCTVSGFSLSKYSIHWVRQPPGRGLEWLGMIWGVENTDYNSALKSRLSISKDNSKSQVFLKMNSLQSDDTAMYYCARKDLGLYGMNYWGQGISVTVSA VL: DIVMTQSQKFMSTSVGDRVSVTCKASQNVGTNVAWYQQKPGQSPKALFYSASYRYSGVPDRFIGSGSGTVFTLTISNVQSEDLAEYFCQQYNTYPLTFGSGTKLEIER
3. T420 MAb (antibody, V domains shown) VH: QVQLQQSGAELAKPGASVKMSCKASGYTFTSYWMHWVKQRPGQDLEWIGYINPSTDYTDYNQKFKDKATLTADKSSSTAYMQLSSLTSEDSAVYYCATRHYGSSYGFAYWGQGTLVTVSA VL: DIVMTQSHKFMSTSVGDRVSITCKASQDVSTAVAWYQQKPGQSPKLLIYWASTRHTGVPDRFTGSGSGTDYSLTISSVQAEDLAVYYCQQHYRTPFTFGSGTKLEIKR

Response given:
1: 8.38; 2: 7.89; 3: 8.72
